Assay: gradient 5% acetonitrile 3 min, to 50% in 2 min, to 85% in 15 min, held 3 min, 100 µL/min
Conditions: column: Zorbax Extend-C18 2.1 x 50 mm; eluents: water / acetonitrile, 0.1% formic acid
reportedEndpoint: RP-LC retention time

Illustrative cases are given below, each with its answer.
{"molecule": "COc1ccccc1N1CCN(CCN2C(=O)CC3(CCCC3)CC2=O)CC1", "RP-LC retention time": "733 s"}
{"molecule": "Cc1cccc(-c2noc(Cn3ncn4nc(-c5ccccc5Cl)cc4c3=O)n2)c1", "RP-LC retention time": "1200 s"}
{"molecule": "O=C(Nc1ccccc1NC(=O)c1ccc(Br)o1)c1ccsc1", "RP-LC retention time": "806 s"}

Input: GET /values?readout=RP-LC retention time&item= O=C(Cc1cccs1)Nc1ccc(OCc2nnc(-c3ccccc3)o2)cc1
Output: 879 s

Input: Can you share its RP-LC retention time? I mean this molecule: CC(=O)NCc1csc(C2CCCN(C(=O)c3cccn3C)C2)n1 (stereo not given)
Output: 612 s

---

Assay: gradient 5% acetonitrile 3 min, to 50% in 2 min, to 85% in 15 min, held 3 min, 100 µL/min
Conditions: column: Zorbax Extend-C18 2.1 x 50 mm; eluents: water / acetonitrile, 0.1% formic acid
Note to self: use Met only for RP-LC retention time readings below 800 s; a reading exactly at 800 s still gets Not met.

Field: example entries. Status: answers known.
{"compound": "O=C1CCc2cc(S(=O)(=O)NCCc3ccccc3)cc3c2N1CCC3", "labelValue": "Not met"}
{"compound": "CCCc1ccc(S(=O)(=O)Nc2ccc3nc(S(=O)(=O)CCC)sc3c2)cc1", "labelValue": "Not met"}
{"compound": "Cc1noc2nc(CCC(=O)NCCCc3ccccc3)nc(N3CCOCC3)c12", "labelValue": "Met"}
{"compound": "COc1cccc(CNC(=O)C2CCCN(c3ccc(-c4nc(C)no4)cn3)C2)c1OC (stereo not given)", "labelValue": "Met"}

Now turn to the next compound.
Input: Confirm or reject: RP-LC retention time of Cc1ccc(NC(=O)NCC(c2cccnc2)c2cn(C)c3ccccc23)c(C)c1 (stereo not given) lies strictly below 800 s
Output: Met

---

Experiment: gradient 5% acetonitrile 3 min, to 50% in 2 min, to 85% in 15 min, held 3 min, 100 µL/min
Settings: column: Zorbax Extend-C18 2.1 x 50 mm; eluents: water / acetonitrile, 0.1% formic acid
reportedEndpoint: RP-LC retention time

Before answering, review these 4 worked examples.
{"compound": "CCCN1C(=O)c2cc(S(=O)(=O)Nc3ccc(C)cc3F)ccc2Oc2cccnc21", "reportedEndpoint": "RP-LC retention time", "recordedValue": "1080 s"}
{"compound": "CCOC(=O)CC1(NC(=O)N2CCN(c3nc4ccccc4nc3C(F)(F)F)CC2)CCCCC1", "reportedEndpoint": "RP-LC retention time", "recordedValue": "1230 s"}
{"compound": "CCCNC(=O)C1CCCN(c2ccc(SCC(=O)Nc3cccc(F)c3)nn2)C1 (stereo not given)", "reportedEndpoint": "RP-LC retention time", "recordedValue": "670 s"}
{"compound": "CN(C)C(=O)C1CN(C(=O)c2ccc(Br)cc2)CC12CCOCC2 (stereo not given)", "reportedEndpoint": "RP-LC retention time", "recordedValue": "631 s"}

Now look at this one.
Input: Report RP-LC retention time for Cc1ccc(NC(=O)Nc2nc(C(=O)Nc3ccc4c(c3)OCO4)cs2)cc1 please.
Output: 852 s
